experimental target: arginine vasopressin V2 receptor (Oryctolagus cuniculus, UniProt G1TA00)
Sequence (G1TA00 78-446): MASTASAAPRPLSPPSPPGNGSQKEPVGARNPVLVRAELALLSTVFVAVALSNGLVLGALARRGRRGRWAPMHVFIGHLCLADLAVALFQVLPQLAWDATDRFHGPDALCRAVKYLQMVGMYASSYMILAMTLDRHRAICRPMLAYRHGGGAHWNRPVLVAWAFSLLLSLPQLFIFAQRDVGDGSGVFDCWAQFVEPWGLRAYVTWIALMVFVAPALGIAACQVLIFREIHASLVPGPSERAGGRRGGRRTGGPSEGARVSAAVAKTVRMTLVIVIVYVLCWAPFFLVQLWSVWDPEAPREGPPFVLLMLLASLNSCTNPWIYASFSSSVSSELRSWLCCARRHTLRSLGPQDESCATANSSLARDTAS
assay explanation: V2 receptor binding assay ([3H]-Arg-vasopressin, rabbit renal medulla membrane)
test context: rabbit renal medulla membrane, [3H]-Arg-vasopressin 2 nM
Where a name gives a salt, the structure may show the parent alone.
Note to self: class = bucket of Binding activity on arginine vasopressin V2 receptor (pKi), per I = under 8, II = from 8 up to 9, III = 9 and over

Some solved cases for reference:
>  <compound>
CN1CCN(C/C=C2/c3ccccc3N(C(=O)c3ccc(NC(=O)c4ccccc4-c4ccccc4)cc3)CCC2(F)F)CC1.Cl.Cl

>  <experimental target>
arginine vasopressin V2 receptor (Oryctolagus cuniculus, UniProt G1TA00)

>  <assigned class>
II

$$$$
>  <compound>
CCc1nccn1-c1ccccc1C(=O)Nc1ccc(C(=O)N2CCC(F)(F)/C(=C\C(=O)NC3CC3)c3ccccc32)cc1

>  <experimental target>
arginine vasopressin V2 receptor (Oryctolagus cuniculus, UniProt G1TA00)

>  <assigned class>
I

$$$$
>  <compound>
CN(C)C1CCN(C(=O)/C=C2/c3ccccc3N(C(=O)c3ccc(NC(=O)c4cccn4C)cc3)CCC2(F)F)CC1 [Example 110, hydrochloride]

>  <experimental target>
arginine vasopressin V2 receptor (Oryctolagus cuniculus, UniProt G1TA00)

>  <assigned class>
I

$$$$

Lookup: Class? Entry: `O=C(Nc1ccc(C(=O)N2CCC(F)(F)/C(=C\C(=O)N3CCOCC3)c3ccccc32)cc1)c1ccccc1-c1ccccc1`
Found: II

Lookup: Which Binding activity on arginine vasopressin V2 receptor (pKi) band matches Cc1ccccc1CC(=O)Nc1ccc(C(=O)N2CCC(F)(F)/C(=C\C(=O)N3CCC(N(C)C)CC3)c3ccccc32)cc1 [Example 106, hydrochloride] ?
Found: II

Lookup: # bin lookup: classify `CN(C)C1CCN(C(=O)/C=C2/c3ccccc3N(C(=O)c3ccc(NC(=O)c4ccccc4-c4ccccc4)cc3)CCC2(F)F)CC1.Cl` by its Binding activity on arginine vasopressin V2 receptor (pKi)
Found: III

Lookup: Lab log: O=C(Nc1ccc(C(=O)N2CCC(F)(F)/C(=C\C(=O)N3CCC(N4CCCCC4)CC3)c3ccccc32)cc1)c1ccccc1-c1ccccc1 [Example 83, hydrochloride] — assign Binding activity on arginine vasopressin V2 receptor (pKi) category
Found: II

Lookup: For the record O=C(Nc1ccc(C(=O)N2CCC(F)(F)/C(=C\C(=O)N3CCCNCC3)c3ccccc32)cc1)c1ccccc1-c1ccccc1 [Example 28, hydrochloride] , report the class its Binding activity on arginine vasopressin V2 receptor (pKi) corresponds to.
Found: III

Lookup: Hey, which category is O=C(/C=C1/c2ccccc2N(C(=O)c2ccc(NC(=O)c3ccccc3-c3ccccc3)cc2)CCC1(F)F)NCc1ccccn1 [Example 14, hydrochloride] in, do you know?
Found: III

----------
Some compounds, each annotated with its measured Ki.
experimental target: arginine vasopressin V1 receptor (Rattus norvegicus)
Construct: A rat liver membrane sample was prepared; from tissue; host or cells: rat liver membranes
Sequence (P30560 whole entry): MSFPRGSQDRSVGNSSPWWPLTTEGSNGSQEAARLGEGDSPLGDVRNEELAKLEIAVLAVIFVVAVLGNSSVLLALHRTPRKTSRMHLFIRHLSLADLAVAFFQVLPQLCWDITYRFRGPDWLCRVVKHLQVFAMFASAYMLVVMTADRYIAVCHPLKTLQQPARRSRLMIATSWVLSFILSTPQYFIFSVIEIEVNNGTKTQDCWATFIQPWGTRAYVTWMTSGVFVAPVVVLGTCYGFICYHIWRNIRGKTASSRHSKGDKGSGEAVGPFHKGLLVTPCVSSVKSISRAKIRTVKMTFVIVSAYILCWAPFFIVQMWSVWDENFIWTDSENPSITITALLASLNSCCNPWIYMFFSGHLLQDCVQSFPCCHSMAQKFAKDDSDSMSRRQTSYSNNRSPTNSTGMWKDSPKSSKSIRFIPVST
assay explanation: V1 receptor binding assay ([3H]-Arg-vasopressin, rat liver membrane)
test context: rat liver membrane, [3H]-Arg-vasopressin 2 nM, 30° C., 30 minutes, pH 8.0; read-out: Binding activity on arginine vasopressin V1 receptor (pKi) (converted)
Structures can show the parent of a compound that is named as a salt.
Give just the number in pM; leave the unit off.

Sample records with Ki:
>  <compound>
CN(C)CCN(C)C(=O)/C=C1/c2ccccc2N(C(=O)c2ccc(NC(=O)c3ccccc3-c3ccccc3)cc2)CCC1(F)F [Example 15, hydrochloride]

>  <Ki (pM)>
162

$$$$
>  <compound>
CN(C)C1CCN(C(=O)/C=C2/c3ccccc3N(C(=O)c3ccc(NC(=O)c4ccccc4-c4ccccc4)cc3)CCC2(F)F)CC1.Cl [Example 13, hydrochloride]

>  <Ki (pM)>
79.4

$$$$
>  <compound>
O=C(/C=C1/c2ccccc2N(C(=O)c2ccc(NC(=O)c3ccccc3-c3ccccc3)cc2)CCC1(F)F)NCc1ccccn1 [Example 14, hydrochloride]

>  <Ki (pM)>
1230

$$$$
>  <compound>
CN1CCN(C/C=C2/c3ccccc3N(C(=O)c3ccc(NC(=O)c4ccccc4-c4ccccc4)cc3)CCC2(F)F)CC1.Cl.Cl [Example 80, dihydrochloride]

>  <Ki (pM)>
363

$$$$
>  <compound>
O=C(Nc1ccc(C(=O)N2CCC(F)(F)/C(=C\C(=O)N3CCOCC3)c3ccccc32)cc1)c1ccccc1-c1ccccc1 [Example 133]

>  <Ki (pM)>
363

$$$$

Could you now look at the following compound, please?
Lookup: Give its Ki value. Item: O=C(/C=C1/c2ccccc2N(C(=O)c2ccc(NC(=O)c3ccccc3-c3ccccc3)cc2)CCC1(F)F)NCc1ccccc1 [Example 127]
Found: 1740

----------
Below, each entry is listed with its recorded Binding activity on arginine vasopressin V2 receptor (pKi).
experimental target: arginine vasopressin V2 receptor (Oryctolagus cuniculus, UniProt G1TA00)
assay explanation: V2 receptor binding assay ([3H]-Arg-vasopressin, rabbit renal medulla membrane)
test context: rabbit renal medulla membrane, [3H]-Arg-vasopressin 2 nM
Structures can show the parent of a compound that is named as a salt.
Reply with the value as a number alone.

Solved entries:
>  <compound>
O=C(Nc1ccc(C(=O)N2CCC(F)(F)/C(=C\C(=O)N3CCCC3)c3ccccc32)cc1)c1ccccc1-c1ccccc1

>  <observed>
7.99

$$$$
>  <compound>
Cc1cccc(-c2ccccc2C(=O)Nc2ccc(C(=O)N3CCC(F)(F)/C(=C\C(=O)N4CCN(C)CC4)c4ccccc43)cc2)c1.Cl

>  <observed>
8.84

$$$$
>  <compound>
Cc1ccsc1C(=O)Nc1ccc(C(=O)N2CCC(F)(F)/C(=C\C(=O)N3CCC(N(C)C)CC3)c3ccccc32)cc1 [Example 111, hydrochloride]

>  <observed>
7.79

$$$$

Lookup: Which value of Binding activity on arginine vasopressin V2 receptor (pKi) has been reported for CN(C)C1CCN(C(=O)/C=C2/c3ccccc3N(C(=O)c3ccc(NC(=O)c4cccc5ccccc45)cc3)CCC2(F)F)CC1 [Example 109, hydrochloride] in the records?
Found: 8.06

Lookup: # Binding activity on arginine vasopressin V2 receptor (pKi) lookup, item `Cl.O=C(Nc1ccc(C(=O)N2CCC(F)(F)/C(=C\CN3CCCC3)c3ccccc32)cc1)c1ccccc1-c1ccccc1`
Found: 8.64

Lookup: Suppose we examine the compound `CCc1nccn1-c1ccccc1C(=O)Nc1ccc(C(=O)N2CCC(F)(F)/C(=C\C(=O)OC)c3ccccc32)cc1` ; what Binding activity on arginine vasopressin V2 receptor (pKi) value has been reported?
Found: 6.33

----------
experimental target: UniProt G1TA00
assay explanation: V2 receptor binding assay ([3H]-Arg-vasopressin, rabbit renal medulla membrane)
test context: rabbit renal medulla membrane, [3H]-Arg-vasopressin 2 nM
Counter-ions that a name gives are not always drawn.
# key: entry, value: Binding activity on arginine vasopressin V2 receptor (pKi)
// no unit, no text: just the number

A selection of reference data follows.
>  <compound>
COCCNC(=O)/C=C1/c2ccccc2N(C(=O)c2ccc(NC(=O)c3ccccc3-c3ccccc3)cc2)CCC1(F)F

>  <experimental target>
UniProt G1TA00

>  <observed>
8.11

$$$$
>  <compound>
CN(C)C1CCN(C(=O)/C=C2/c3ccccc3N(C(=O)c3ccc(NC(=O)c4cccc(Cl)c4)cc3)CCC2(F)F)CC1.Cl

>  <experimental target>
UniProt G1TA00

>  <observed>
8.13

$$$$
>  <compound>
CCNC(=O)/C=C1/c2ccccc2N(C(=O)c2ccc(NC(=O)c3ccccc3-c3ccccc3)cc2)CCC1(F)F

>  <experimental target>
UniProt G1TA00

>  <observed>
9.16

$$$$
>  <compound>
CNC(=O)/C=C1/c2ccccc2N(C(=O)c2ccc(NC(=O)c3ccccc3-c3ccccc3)cc2)CCC1(F)F

>  <experimental target>
UniProt G1TA00

>  <observed>
8.94

$$$$
>  <compound>
O=C(/C=C1/c2ccccc2N(C(=O)c2ccc(NC(=O)c3ccccc3-c3ccccc3)cc2)CCC1(F)F)NCc1ccccc1

>  <experimental target>
UniProt G1TA00

>  <observed>
8.19

$$$$
>  <compound>
Cc1ccoc1C(=O)Nc1ccc(C(=O)N2CCC(F)(F)/C(=C\C(=O)N3CCC(N(C)C)CC3)c3ccccc32)cc1 [Example 113, hydrochloride]

>  <experimental target>
UniProt G1TA00

>  <observed>
7.50

$$$$

Lookup: Can you share its Binding activity on arginine vasopressin V2 receptor (pKi)? I mean this compound: `CN(C)CC/C=C1\c2ccccc2N(C(=O)c2ccc(NC(=O)c3ccccc3-c3ccccc3)cc2)CCC1(F)F.Cl`
Found: 8.13

Lookup: I'd like to know its Binding activity on arginine vasopressin V2 receptor (pKi). The compound in question is CN(C)CCN(C)C(=O)/C=C1/c2ccccc2N(C(=O)c2ccc(NC(=O)c3ccccc3-c3ccccc3)cc2)CCC1(F)F [Example 15, hydrochloride]
Found: 9.13

Lookup: Quick one: Binding activity on arginine vasopressin V2 receptor (pKi) of `CC(C)NC(=O)/C=C1/c2ccccc2N(C(=O)c2ccc(NC(=O)c3ccccc3-c3ccccc3)cc2)CCC1(F)F` ?
Found: 8.08

Lookup: Give its Binding activity on arginine vasopressin V2 receptor (pKi) value. Item: `CN1CCN(C(=O)/C=C2/c3ccccc3N(C(=O)c3ccc(NC(=O)c4ccccc4-c4ccccc4)cc3)CCC2(F)F)CC1.Cl`
Found: 9.06
